So I've got a bunch of binders here, and I need their OD450 values.
Test target: T1, murine CD22 protein (ACROBiosystems, SI2-M52Ha) (murine, UniProt P35329 22-708)
T1 construct: extracellular domain; also called murine CD22-ECD; murine CD22-ECD-His
T1 sequence (looked up): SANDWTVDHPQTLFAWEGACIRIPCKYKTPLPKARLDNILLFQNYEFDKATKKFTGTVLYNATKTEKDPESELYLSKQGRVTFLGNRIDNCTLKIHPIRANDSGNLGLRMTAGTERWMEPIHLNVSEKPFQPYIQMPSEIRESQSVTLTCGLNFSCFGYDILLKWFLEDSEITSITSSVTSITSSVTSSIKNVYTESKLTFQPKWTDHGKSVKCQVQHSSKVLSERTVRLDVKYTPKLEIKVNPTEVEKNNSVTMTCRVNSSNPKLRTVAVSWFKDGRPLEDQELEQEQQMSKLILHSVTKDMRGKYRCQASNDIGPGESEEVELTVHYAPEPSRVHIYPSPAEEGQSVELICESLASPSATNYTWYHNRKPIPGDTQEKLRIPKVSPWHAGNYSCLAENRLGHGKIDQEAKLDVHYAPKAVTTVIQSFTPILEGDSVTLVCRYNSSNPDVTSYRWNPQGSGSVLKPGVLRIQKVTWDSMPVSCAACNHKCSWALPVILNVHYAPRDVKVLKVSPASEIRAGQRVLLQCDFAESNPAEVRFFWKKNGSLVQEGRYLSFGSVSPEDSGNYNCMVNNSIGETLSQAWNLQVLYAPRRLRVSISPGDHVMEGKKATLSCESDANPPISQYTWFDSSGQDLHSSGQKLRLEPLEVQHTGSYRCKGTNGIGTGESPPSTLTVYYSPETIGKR
Method: ELISA, coated murine CD22, 0.001 nM Ab
Numbers only, in OD450.

Reference set (2 entries):
>  <Binder>
F2.55.1 human-murine chimeric antibody (antibody, human IgG1, lambda, V domains shown, Chimeric, human IgG1 / lambda; VL tied by name) VH: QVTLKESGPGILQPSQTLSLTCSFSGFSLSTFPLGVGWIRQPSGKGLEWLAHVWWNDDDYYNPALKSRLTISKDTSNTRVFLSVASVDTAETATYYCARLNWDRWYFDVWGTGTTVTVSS VL: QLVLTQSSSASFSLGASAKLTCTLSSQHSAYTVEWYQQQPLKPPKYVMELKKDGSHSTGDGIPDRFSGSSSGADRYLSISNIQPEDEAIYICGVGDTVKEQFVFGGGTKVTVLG

>  <Obs value>
0.05

$$$$
>  <Binder>
F1.60.9 human-murine chimeric antibody (antibody, human IgG1, kappa, V domains shown, Chimeric, human IgG1 / kappa) VH: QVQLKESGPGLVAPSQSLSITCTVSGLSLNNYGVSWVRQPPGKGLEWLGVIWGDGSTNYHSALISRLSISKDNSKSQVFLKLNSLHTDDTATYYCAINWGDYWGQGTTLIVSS VL: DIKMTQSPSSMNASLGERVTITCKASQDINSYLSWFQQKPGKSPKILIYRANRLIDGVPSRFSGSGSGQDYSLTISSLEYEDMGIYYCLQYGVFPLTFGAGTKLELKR

>  <Obs value>
0.05

$$$$

Exercise: Which value of OD450 has been reported for F1.267.9 human-murine chimeric antibody (antibody, human IgG1, kappa, V domains shown, Chimeric, human IgG1 / kappa; VL tied by name) VH: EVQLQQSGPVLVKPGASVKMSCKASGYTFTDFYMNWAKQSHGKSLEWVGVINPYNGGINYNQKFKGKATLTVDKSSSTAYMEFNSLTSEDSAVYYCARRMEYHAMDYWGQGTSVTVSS VL: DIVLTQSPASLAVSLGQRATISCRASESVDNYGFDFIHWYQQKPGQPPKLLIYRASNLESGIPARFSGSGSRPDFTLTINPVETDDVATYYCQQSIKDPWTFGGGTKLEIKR in the records?
Key: 0.07
